biological target: estrone sulfatase (Homo sapiens); construct: Estrone Sulfatase Assay with Intact Cells; experiment: Estrone sulfatase assay with intact MCF-7 cells; conditions: concentration giving 50 % inhibition, 24 h, 3H-estrone sulfate substrate
Sequence (P08842 22-583): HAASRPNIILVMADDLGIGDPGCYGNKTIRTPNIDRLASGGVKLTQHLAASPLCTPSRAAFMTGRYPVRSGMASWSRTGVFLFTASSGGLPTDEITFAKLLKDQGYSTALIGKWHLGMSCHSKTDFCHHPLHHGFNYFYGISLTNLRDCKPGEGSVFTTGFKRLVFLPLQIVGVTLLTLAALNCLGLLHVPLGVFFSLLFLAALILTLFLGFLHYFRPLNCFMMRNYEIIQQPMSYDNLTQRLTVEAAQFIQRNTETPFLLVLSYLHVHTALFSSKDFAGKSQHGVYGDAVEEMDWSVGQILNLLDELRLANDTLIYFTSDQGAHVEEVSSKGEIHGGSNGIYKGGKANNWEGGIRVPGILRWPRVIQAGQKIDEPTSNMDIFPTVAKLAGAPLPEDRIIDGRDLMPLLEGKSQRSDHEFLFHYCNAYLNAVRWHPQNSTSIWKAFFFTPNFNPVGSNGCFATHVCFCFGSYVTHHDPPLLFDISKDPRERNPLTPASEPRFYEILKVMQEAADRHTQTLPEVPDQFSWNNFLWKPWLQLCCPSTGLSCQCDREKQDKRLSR
// boundary case: IC50 equal to 50 nM maps to 0; strictly smaller maps to 1

1. C=C1CC[C@H]2[C@@H]3CCc4cc5c(cc4[C@H]3CC[C@]12C)C=NS(=O)(=O)O5 [Compound 30] = 0
2. C=C=C1CC[C@H]2[C@@H]3CCc4cc5c(cc4[C@H]3CC[C@]12C)C=NS(=O)(=O)O5 [Compound 40] = 0
3. C[C@]12CC[C@@H]3c4ccc5c(c4CC[C@H]3[C@@H]1CCC2=O)C=NS(=O)(=O)O5 [Compound 13] = 1
4. C[C@]12CC[C@@H]3c4ccc5c(c4CC[C@H]3[C@@H]1CC[C@@H]2O)CNS(=O)(=O)O5 [Compound 14] = 0
5. CC(=O)O[C@H]1CC[C@H]2[C@@H]3CCc4cc5c(cc4[C@H]3CC[C@]12C)C=NS(=O)(=O)O5 [Compound 4] = 1
6. C[C@H]1CC[C@H]2[C@@H]3CCc4cc5c(cc4[C@H]3CC[C@]12C)C=NS(=O)(=O)O5 [Compound 34] = 1
7. C/C=C1/CC[C@H]2[C@@H]3CCc4cc5c(cc4[C@H]3CC[C@]12C)C=NS(=O)(=O)O5 [Compound 31] = 0
8. CCC[C@H]1CC[C@H]2[C@@H]3CCc4cc5c(cc4[C@H]3CC[C@]12C)C=NS(=O)(=O)O5 [Compound 35] = 0

Source: patent US5861388A
